Every entry's value here was drawn from PubChem BioAssay (NCI).

test system: SR leukemia; experiment: NCI-60 one-dose screen, 48 h (100 = growth as untreated, 0 = no growth, -100 = all killed); settings: 10 µM unless noted
About 83,000 compounds went through this panel and 20% of them were active in at least one assay; those are over-represented in the sample as a whole.
Hi! Just check whether growth is below 90%. Below gives Yes, equal or above gives No.

growth strictly < 90% for this molecule? `COc1cc2c(cc1O)CCN1C[C@@H](CC(C)C)[C@@H](O)C[C@@H]21`
No

Another molecule to check: `Nc1nc(=O)c2ccccc2s1`
No

Another molecule to check: `COc1ccc2[nH]c(=O)c3c4ccccc4cn3c2c1`
Yes

Another molecule to check: `c1coc(CNc2ccnc(Nc3ccc(OCCN4CCCCC4)cc3)n2)c1`
Yes

Another molecule to check: `Nc1cccc(-c2nc3sccn3c2-c2ccnc(NCCNS(=O)(=O)c3ccc(C(F)(F)F)cc3)n2)c1`
Yes

Another molecule to check: `CCN1CCN(CC(=O)N2c3cccc4cccc(c34)N(C(=O)CN3CCN(CC)CC3)C2c2cn(-c3ccccc3)nc2-c2cccc([N+](=O)[O-])c2)CC1`
Yes

Another molecule to check: `Clc1cc(Cl)c2nc(-c3ccc(-c4ccc(/C=N/NC5=NCCN5)cc4)s3)cn2c1`
Yes

Another molecule to check: `O=C1CCCCC1(c1ccccc1)c1ccccc1`
No

----------
test system: NCI-H522 lung; experiment: NCI-60 one-dose screen, 48 h (100 = growth as untreated, 0 = no growth, -100 = all killed); settings: 10 µM unless noted
This is part of a sample that, as a whole, favours compounds with a hit. Of some 83,000 tested, about 20% had one in any assay.
measured endpoint: growth (%)
The answer is to be given in %; state only the numeric part.

Observed growth on NCI-H522 lung for `CC(C)C1=CC2=C(C=O)C[C@@H]3[C@](C)(CCC[C@@]3(C)C(=O)OCC#CCN3CCCC3)[C@H]2CC1` , please.
59.9

Another compound to check: `COc1ccc(S(=O)(=O)Nc2cc(/C=C\c3cc(OC)c(OC)c(OC)c3)cc(OC)c2OC)cc1`
-21.4

Another compound to check: CN1C(=O)N(C)C2C1NN=c1s/c(=C\C=C\c3ccccc3)c(=O)n12 (centres undefined)
38.7

Another compound to check: `COc1ccc(C(=O)NC(=O)Nc2cc3c(cc2F)/C(=C/c2[nH]c(C)c(CCC(=O)O)c2C)C(=O)N3)c(F)c1`
48.6

Another compound to check: `COC(=O)c1cc(=O)nc(N/N=C/c2ccco2)s1`
103

Another compound to check: `N/C(=N\C(N)=N\c1nc2ccccc2s1)c1ccncc1`
2.64

Another compound to check: `C=C(C)[C@@H]1C[C@@H]2Cc3cc(F)ccc3N1O2`
91.3

Another compound to check: `CCN(CC)CCCNc1nccc2ccc(Cl)cc12`
102

Another compound to check: NC(=S)N/N=C1\CCCC(C(F)(F)F)C1 (centres undefined)
94

Another compound to check: OC(c1cc2cc(Br)ccc2c2cc(Br)ccc12)C1CCCCN1 (centres undefined)
-86.1

Another compound to check: `O=C(Nc1cccc(-n2cc(-c3ccncc3)c(-c3ccc(Cl)c(O)c3)n2)c1)Nc1ccc(Cl)c(C(F)(F)F)c1`
-30

Another compound to check: `COc1ccc2[nH]c(=O)c(/C=N/Nc3nc(-c4ccccc4)cs3)c(O)c2c1`
80.1

Another compound to check: `CC1(C)C(=O)/C(=C\c2ccc(C(F)(F)F)cc2)C[C@]2(C)[C@H]3CC[C@@H]4[C@H]5[C@H](C(=O)/C=C/c6ccc(C(F)(F)F)cc6)CC[C@]5(CO)CC[C@@]4(C)[C@]3(C)CC[C@@H]12`
97.9

Another compound to check: O=C(O)C1CCCCN1c1nc(Cl)nc(Cl)n1 (centres undefined)
93.3

Another compound to check: `CNc1ccc(Br)c2c1C(=O)c1ccccc1C2=O`
98

Another compound to check: `CCCCN(CCCC)C(=N)c1ccnc2ccccc12`
102

Another compound to check: `C=C[C@@H]1C[C@H](O)Cc2c(C)cc(C)cc2N1`
101

Another compound to check: `O=[N+]([O-])c1ccc(/C=C/C2(CCl)OCCO2)cc1`
-15.3

Another compound to check: `O=[N+]([O-])c1cnc(Sc2ccncn2)s1`
-79.1

----------
tested on: CAKI-1 renal; test: NCI-60 one-dose screen, 48 h (100 = growth as untreated, 0 = no growth, -100 = all killed); settings: 10 µM unless noted
The panel holds about 83,000 compounds, 20% with a hit somewhere; the sample as a whole holds those more often.
Classify by measured growth: T if it is equal to or exceeds 80%, F if it is smaller.

Reported growth at or above 80%? `O=C(Nc1cccc(-n2cc(-c3ccncc3)c(-c3ccc(Cl)c(O)c3)n2)c1)c1ccccc1`
T

Another compound to check: `O=C(NNC(=O)N1c2ccccc2C=Cc2ccccc21)c1ccc2ccccc2c1`
T

Another compound to check: `Cc1ccc2nc(-c3cc4c([nH]c5ccccc54)c(-c4ccc(F)c(F)c4)n3)[nH]c2c1`
T

Another compound to check: `CCCCNC(=O)Oc1ccc(/C(=C(\C)c2ccccc2)c2ccc(OCCN(CC)CC)cc2)cc1`
T

Another compound to check: `COc1cc(/C(C#N)=C/c2ccc3c(c2OC)OCO3)cc2c1OCO2`
F

Another compound to check: CN(C)CC(C(=O)c1ccccc1)c1ccccc1 (stereo not drawn)
F

Another compound to check: CC(C)CC1NC(C)(C)CO1 (stereo not drawn)
T

----------
system: SK-MEL-5 melanoma; experiment: NCI-60 one-dose screen, 48 h (100 = growth as untreated, 0 = no growth, -100 = all killed); conditions: 10 µM unless noted
About 83,000 compounds went through this panel and 20% of them were active in at least one assay; those are over-represented in the sample as a whole.
measured endpoint: growth (%)
The answer is to be given in %; state only the numeric part.

Report growth for Clc1ccc2c(NC3CCC(NC4CCCCC4)CC3)ccnc2c1 (stereo unspecified) please.
18.6

Another molecule to check: `Cn1cnc2c(N3CCN(C(=O)OCc4ccc5c(Cl)cc(Cl)c(O)c5n4)CC3)nc(Cl)nc21`
41.6

Another molecule to check: `Cc1ccc(CSC(=N)N)cc1C`
105

Another molecule to check: C=C1CCC2C3(C)COC(c4ccccc4)OC3CCC2(C)C1/C=C/C1=CCOC1=O (stereo unspecified)
76.5

Another molecule to check: `O=c1[nH]c(NCc2ccccc2)nc2nc(Nc3ccc(NC(=S)Nc4ccccc4)cc3)nc(-c3ccc(O)cc3O)c12`
113

Another molecule to check: `Cc1ccc(S(=O)(=O)NCCNc2nccc(-c3c(-c4cccc(N)c4)nc4sccn34)n2)cc1`
84.6

----------
test system: NCI-H23 lung; test: NCI-60 one-dose screen, 48 h (100 = growth as untreated, 0 = no growth, -100 = all killed); details: 10 µM unless noted
The panel holds about 83,000 compounds, 20% with a hit somewhere; the sample as a whole holds those more often.
measured endpoint: growth (%)
The answer is to be given in %; state only the numeric part.

Report growth for `O=C1Nc2ccc3c(c2/C1=C\c1cc2c(cc1Br)OCO2)OCO3` please.
19.5

Another compound to check: `COc1ccc(C(=O)c2cc(OC)c3c(c2)OCO3)cc1O`
30.4

Another compound to check: `COc1ccc(S(=O)(=O)n2cc(C(=O)C(=O)Nc3ccncc3)c3ccccc32)cc1F`
65.2

Another compound to check: `Cc1ccc(S(=O)(=O)Nc2c(Br)cc(Br)cc2C(N)=O)cc1`
96

Another compound to check: `Cc1ccc(Cc2c(C=O)nc(N)[nH]c2=O)c2ccccc12`
97.7

Another compound to check: Oc1ccccc1/C=N/NC(=S)NC1CC2C=CC1C2 (configuration not stated)
56.3

Another compound to check: `O=c1[nH]c(-c2ccccc2)nc(CN2CCCCC2)c1O`
103

----------
Can you tell me growth for the items I'm about to list?
tested on: SNB-19 CNS; assay: NCI-60 one-dose screen, 48 h (100 = growth as untreated, 0 = no growth, -100 = all killed); details: 10 µM unless noted
About 83,000 compounds went through this panel and 20% of them were active in at least one assay; those are over-represented in the sample as a whole. Calls of active or inactive are those of the source. Rule for the calls: active = growth percent below 10; inactive = the rest.

Report growth for `C=C1CCC[C@]2(C)CCC[C@H](C)[C@@H](OC(C)=O)[C@@H]3OC(=O)C(=C)[C@@H]3C[C@H]1O2` please.
88.9% (inactive)

Another compound to check: `C=CCn1cc(-c2nc3ccccc3s2)c2cc(-c3ccc4c5c(cccc35)C(=O)N(CCN3CCNCC3)C4=O)ccc21`
90% (inactive)

Another compound to check: `O=c1[nH]c(NCc2ccccc2)nc2nc(Nc3ccc(NC(=S)Nc4ccccc4)cc3)nc(-c3ccc(O)cc3O)c12`
91.9% (inactive)
